- assay.system: human α2C‐adrenoceptor (Homo sapiens)
- Sequence (P18825 1-462): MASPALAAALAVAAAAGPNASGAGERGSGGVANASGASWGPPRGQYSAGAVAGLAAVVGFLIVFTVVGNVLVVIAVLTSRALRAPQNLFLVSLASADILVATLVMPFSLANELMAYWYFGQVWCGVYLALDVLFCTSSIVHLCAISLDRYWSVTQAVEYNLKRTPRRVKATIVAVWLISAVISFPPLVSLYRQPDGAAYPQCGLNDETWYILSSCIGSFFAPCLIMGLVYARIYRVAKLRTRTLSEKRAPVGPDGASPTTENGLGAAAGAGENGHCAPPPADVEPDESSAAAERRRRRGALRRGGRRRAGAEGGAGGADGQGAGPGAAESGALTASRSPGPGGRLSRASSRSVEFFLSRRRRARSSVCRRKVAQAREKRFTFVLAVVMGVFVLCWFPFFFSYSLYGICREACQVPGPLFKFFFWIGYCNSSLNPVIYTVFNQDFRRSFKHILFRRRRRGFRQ
- protocol.description: ^3H‐rauwolscine whole cell competition binding, CHO‐α2C cells
- assay.context: given as log KD (negative values); 3H-rauwolscine whole cell binding, CHO cells; mean ± s.e.mean
reported.endpoint: Log KD α2C
Would you mind answering with just the numeric figure?

For orientation, consider the following solved cases.
>  <molecule>
O=C1Nc2ccccc2C2=NC(CN3CCN(c4ccccc4)CC3)CN12 (stereo not drawn)

>  <Log KD α2C>
-7.07

$$$$
>  <molecule>
COc1cc2nc(N3CCN(C(=O)COc4c(OC)cccc4C(C)C)CC3)nc(N)c2cc1OC

>  <Log KD α2C>
-6.56

$$$$

Shift focus to the following entry.
Kindly indicate its recorded Log KD α2C. Item: "CC(C)(C)NC[C@H](O)COc1cccc2[nH]c(C#N)cc12" -6.15
